The origin of these recorded values is patent US6858210B1.

biological target: affinity purified β2GPI-dependent antiphospholipid antibody; assay: Competitive inhibition ELISA: recombinant β2GPI proteins compete for antibody binding to coated full length recombinant β2GPI; parameters: species or system human; settings: Ab 6509; read-out: 50% (concentration to give 50% inhibition)
Experimental readout: pIC50
// pIC50: -log10(molar conc.)

Molecule: 1234-: recombinant β2GPI deletion mutant with domains 1, 2, 3, 4 (protein) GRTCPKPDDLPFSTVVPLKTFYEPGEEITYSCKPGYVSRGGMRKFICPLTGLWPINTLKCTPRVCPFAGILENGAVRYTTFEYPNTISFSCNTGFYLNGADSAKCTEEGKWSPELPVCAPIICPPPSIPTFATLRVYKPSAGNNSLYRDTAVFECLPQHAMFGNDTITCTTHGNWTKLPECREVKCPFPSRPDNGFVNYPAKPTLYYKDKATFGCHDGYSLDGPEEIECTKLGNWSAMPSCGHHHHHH
pIC50: 5.52

Here is another molecule to look at.
Give the measured pIC50 for 123--: recombinant β2GPI deletion mutant with domains 1, 2, 3 (protein) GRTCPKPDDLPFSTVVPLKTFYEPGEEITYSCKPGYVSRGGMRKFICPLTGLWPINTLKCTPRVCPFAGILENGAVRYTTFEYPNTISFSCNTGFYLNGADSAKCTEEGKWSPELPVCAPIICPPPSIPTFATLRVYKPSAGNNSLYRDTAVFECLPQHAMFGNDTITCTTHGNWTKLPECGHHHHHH
6.52
